System: HIPK2;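 note: KINOMEscan kinase panel screen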
studyConditions: concentration: 1 μM, replicates: in singlicate; n = 1
%Inh values, listed per item
Give your result in % as a bare value.

// known answers, use as guide
compound	number
Cc1ccc(O)cc1Nc1ccnc2cc(-c3ccc(CN4CCCCC4)o3)ccc12	0
Cc1cccc(Nc2nc(N[C@H]3CCCC[C@H]3N)ncc2C(N)=O)c1.Cl	0
Fc1cc(Cl)ccc1Nc1ccnc2cc(-c3ccc(CN4CCOCC4)o3)ccc12	0
Cn1cc(-c2cnc(N)c3c(-c4ccc5c(c4)CCN5C(=O)Cc4ccccc4)csc23)cn1	0
CN(c1ccc(NC(=O)N2CCN(CCCN3CCOCC3)CC2)cc1)c1ccnc(Nc2ccc(CS(C)(=O)=O)cc2)n1.Cl	0

Here is another compound to look at.
Which %Inh reading was recorded for the compound CSc1ccc(NC2=C(c3ccc(Cl)cc3)C(=O)NC2=O)cc1 ?
3
